Quick reference: Activity of the listed items.
# System: HCT-15
# Protocol summary: Cytotoxicity against human HCT15 cells at 20 uM after 24 hrs by sulforhodamine B assay relative to control
# Format: functional
Observed property: Activity (%)

INSERT INTO assay_data (structure_smiles_string, observed_property, unit_string, assay_result) VALUES
  ('CON1C(=O)[C@@H]2CCCN2C(=O)/C1=C\c1ccccc1', 'Activity', '%', 60.5),
  ('CCCCON1C(=O)[C@@H]2CCCN2C(=O)/C1=C\c1ccccc1', 'Activity', '%', 78.3),
  ('COc1cc(/C=C2\C(=O)N3CCC[C@H]3C(=O)N2OCc2ccc(Cl)cc2)cc(OC)c1OC', 'Activity', '%', 81.6),
  ('COc1cc(/C=C2\C(=O)N3CCC[C@H]3C(=O)N2OC2CCCCC2)cc(OC)c1OC', 'Activity', '%', 47.6);

----------
Quick reference: inhibition of growth at 20 µg/mL of the listed items.
# Test system: A549
# Protocol summary: Growth inhibition of human A549 cells at 20 ug/ml relative to control
# Assay type: functional
# Condition description: read-out: GI
Observed property: inhibition of growth at 20 µg/mL

INSERT INTO measurements (structure_smiles_string, tested_target, assay_result) VALUES
  ('COc1cc(/C=C2\C(=O)N3CCC[C@H]3C(=O)N2OC2CCCCC2)cc(OC)c1OC', 'A549', '26.4%'),
  ('O=C1[C@@H]2CCCN2C(=O)/C(=C\c2ccccc2)N1OC1CCCCC1', 'A549', '33.8%'),
  ('CCCCON1C(=O)[C@@H]2CCCN2C(=O)/C1=C\c1ccccc1', 'A549', '50.8%'),
  ('CCCCON1C(=O)[C@@H]2CCCN2C(=O)/C1=C\c1cc(OC)c(OC)c(OC)c1', 'A549', '43.4%'),
  ('CON1C(=O)[C@@H]2CCCN2C(=O)/C1=C\c1ccccc1', 'A549', '26.6%'),
  ('COc1cc(/C=C2\C(=O)N3CCC[C@H]3C(=O)N2OCc2ccccc2)cc(OC)c1OC', 'A549', '8.9%'),
  ('O=C1[C@@H]2CCCN2C(=O)/C(=C\c2ccccc2)N1OCc1ccccc1', 'A549', '41.3%'),
  ('O=C1[C@@H]2CCCN2C(=O)/C(=C\c2cccnc2)N1OC1CCCCC1', 'A549', '35.2%');

----------
# Tested on: A549
# Protocol summary: Cytotoxicity against human A549 cells at 50 uM after 24 hrs by sulforhodamine B assay relative to control
# Assay type: functional
Observed property: Activity

INSERT INTO measurements (structure_smiles_string, observed_property, assay_result) VALUES
  ('CON1C(=O)[C@@H]2CCCN2C(=O)/C1=C\c1ccccc1', 'Activity', '22.4%'),
  ('CCCCON1C(=O)[C@@H]2CCCN2C(=O)/C1=C\c1ccccc1', 'Activity', '48.4%'),
  ('COc1cc(/C=C2\C(=O)N3CCC[C@H]3C(=O)N2OCc2ccc(Cl)cc2)cc(OC)c1OC', 'Activity', '81.8%'),
  ('COc1cc(/C=C2\C(=O)N3CCC[C@H]3C(=O)N2OC2CCCCC2)cc(OC)c1OC', 'Activity', '33.4%');

----------
Quick reference: inhibition of growth at 20 µg/mL of the listed items.
# Tested on: HCT-8
# Protocol summary: Growth inhibition of human HCT8 cells at 20 ug/ml relative to control
# Format: functional
# Condition description: read-out: GI
Observed property: inhibition of growth at 20 µg/mL (%)

INSERT INTO results (structure_smiles_string, observed_property, unit_string, assay_result) VALUES
  ('COc1cc(/C=C2\C(=O)N3CCC[C@H]3C(=O)N2OC2CCCCC2)cc(OC)c1OC', 'inhibition of growth at 20 µg/mL', '%', 75.2),
  ('O=C1[C@@H]2CCCN2C(=O)/C(=C\c2ccccc2)N1OC1CCCCC1', 'inhibition of growth at 20 µg/mL', '%', 76.3),
  ('CCCCON1C(=O)[C@@H]2CCCN2C(=O)/C1=C\c1ccccc1', 'inhibition of growth at 20 µg/mL', '%', 68.4),
  ('CON1C(=O)[C@@H]2CCCN2C(=O)/C1=C\c1ccccc1', 'inhibition of growth at 20 µg/mL', '%', 78.8),
  ('O=C1[C@@H]2CCCN2C(=O)/C(=C\c2cccnc2)N1OC1CCCCC1', 'inhibition of growth at 20 µg/mL', '%', 80.1),
  ('O=C1[C@@H]2CCCN2C(=O)/C(=C\c2ccccc2)N1OCc1ccccc1', 'inhibition of growth at 20 µg/mL', '%', 66.8),
  ('CCCCON1C(=O)[C@@H]2CCCN2C(=O)/C1=C\c1cc(OC)c(OC)c(OC)c1', 'inhibition of growth at 20 µg/mL', '%', 60.6),
  ('COc1cc(/C=C2\C(=O)N3CCC[C@H]3C(=O)N2OCc2ccccc2)cc(OC)c1OC', 'inhibition of growth at 20 µg/mL', '%', 79.1);

----------
# Test system: MDA-MB-231
# Protocol summary: Growth inhibition of human MDA-MB-231 cells at 20 ug/ml relative to control
# Type: functional
# Condition description: read-out: GI
Observed property: inhibition of growth at 20 µg/mL (%)

INSERT INTO assay_data (structure_smiles_string, unit_string, assay_result) VALUES
  ('CCCCON1C(=O)[C@@H]2CCCN2C(=O)/C1=C\c1ccccc1', '%', 16.3),
  ('COc1cc(/C=C2\C(=O)N3CCC[C@H]3C(=O)N2OC2CCCCC2)cc(OC)c1OC', '%', 42.5),
  ('CCCCON1C(=O)[C@@H]2CCCN2C(=O)/C1=C\c1cc(OC)c(OC)c(OC)c1', '%', 45.6),
  ('O=C1[C@@H]2CCCN2C(=O)/C(=C\c2cccnc2)N1OC1CCCCC1', '%', 16.1),
  ('COc1cc(/C=C2\C(=O)N3CCC[C@H]3C(=O)N2OCc2ccccc2)cc(OC)c1OC', '%', 43.2),
  ('O=C1[C@@H]2CCCN2C(=O)/C(=C\c2ccccc2)N1OC1CCCCC1', '%', 17.3),
  ('O=C1[C@@H]2CCCN2C(=O)/C(=C\c2ccccc2)N1OCc1ccccc1', '%', 32.6),
  ('CON1C(=O)[C@@H]2CCCN2C(=O)/C1=C\c1ccccc1', '%', 23.5);

----------
# System: HCT-15
# Protocol summary: Cytotoxicity against human HCT15 cells at 10 uM after 24 hrs by sulforhodamine B assay relative to control
# Type: functional
Quick reference: Activity of the listed items.
Observed property: Activity

INSERT INTO assay_data (structure_smiles_string, assay_result) VALUES
  ('COc1cc(/C=C2\C(=O)N3CCC[C@H]3C(=O)N2OC2CCCCC2)cc(OC)c1OC', '39.2%'),
  ('COc1cc(/C=C2\C(=O)N3CCC[C@H]3C(=O)N2OCc2ccc(Cl)cc2)cc(OC)c1OC', '60.5%'),
  ('CON1C(=O)[C@@H]2CCCN2C(=O)/C1=C\c1ccccc1', '46.8%'),
  ('CCCCON1C(=O)[C@@H]2CCCN2C(=O)/C1=C\c1ccccc1', '48.8%');

----------
Quick reference: Activity of the listed items.
# System: HT-29
# Protocol summary: Cytotoxicity against human HT-29 cells at 20 uM after 24 hrs by sulforhodamine B assay relative to control
# Format: functional
Observed property: Activity (%)

INSERT INTO assay_data (structure_smiles_string, assay_result) VALUES
  ('CON1C(=O)[C@@H]2CCCN2C(=O)/C1=C\c1ccccc1', 34.9),
  ('COc1cc(/C=C2\C(=O)N3CCC[C@H]3C(=O)N2OCc2ccc(Cl)cc2)cc(OC)c1OC', 39.2),
  ('COc1cc(/C=C2\C(=O)N3CCC[C@H]3C(=O)N2OC2CCCCC2)cc(OC)c1OC', 42.9),
  ('CCCCON1C(=O)[C@@H]2CCCN2C(=O)/C1=C\c1ccccc1', 39.8);

----------
Quick reference: inhibition of growth at 20 µg/mL of the listed items.
# Tested on: HT-29
# Protocol summary: Growth inhibition of human HT-29 cells at 20 ug/ml relative to control
# Format: functional
# Condition description: read-out: GI
Observed property: inhibition of growth at 20 µg/mL

INSERT INTO measurements (structure_smiles_string, assay_result) VALUES
  ('COc1cc(/C=C2\C(=O)N3CCC[C@H]3C(=O)N2OC2CCCCC2)cc(OC)c1OC', '60.5%'),
  ('CCCCON1C(=O)[C@@H]2CCCN2C(=O)/C1=C\c1cc(OC)c(OC)c(OC)c1', '61.6%'),
  ('CCCCON1C(=O)[C@@H]2CCCN2C(=O)/C1=C\c1ccccc1', '64.9%'),
  ('O=C1[C@@H]2CCCN2C(=O)/C(=C\c2ccccc2)N1OC1CCCCC1', '69.4%'),
  ('CON1C(=O)[C@@H]2CCCN2C(=O)/C1=C\c1ccccc1', '65.4%'),
  ('COc1cc(/C=C2\C(=O)N3CCC[C@H]3C(=O)N2OCc2ccccc2)cc(OC)c1OC', '70.1%'),
  ('O=C1[C@@H]2CCCN2C(=O)/C(=C\c2ccccc2)N1OCc1ccccc1', '76.2%'),
  ('O=C1[C@@H]2CCCN2C(=O)/C(=C\c2cccnc2)N1OC1CCCCC1', '70.3%');
